System: CP268
protocol.summary: qHTS profiling for inhibitors of Plasmodium falciparum proliferation (AID 504749); further: nearly all actives have a fitted effect of over 60% in size
condition: P. falciparum in erythrocytes, SYBR Green DNA, 72 h; series mostly up to 28.7 µM
Results filed as inconclusive are left out. Activity calls are given as the source filed them. The call rests on the fitted dose curve; in most records, active means well fitted inhibition curve with a large enough effect; inconclusive means small, poorly fitted or top-dose-only effect; inactive means flat fitted curve, though single readings scatter.
// classify into active, inactive

Illustrative cases are given below, each with its answer.
compound | label.value
Oc1c(Br)cc(Br)cc1Br | inactive
CCS(=O)(=O)C(C)(C)S(=O)(=O)CC | inactive
CC(C)NCC(O)c1ccc(N)c(C#N)c1 (configuration not stated) | inactive
CN(C)C(=S)SSC(=S)N(C)C | active
COP(=O)(OC)C(O)C(Cl)(Cl)Cl (configuration not stated) | inactive
CN1C(=O)CN=C(c2ccccc2)c2cc([N+](=O)[O-])ccc21 | inactive

Turning now to a further compound:
For Cc1c(Cl)c(=O)oc2cc(OP(=O)(OCCCl)OCCCl)ccc12 , what call appears in the results of this test? active

---

tested.on: Cytochrome P450 2C19 (Homo sapiens)
protocol.summary: qHTS Assay for Inhibitors and Substrates of Cytochrome P450 2C19 (AID 899); further: nearly all actives have a fitted effect of over 60% in size
condition: recombinant CYP2C19, luciferin-H EGE luminescence; series mostly up to 57.1 µM
Records with an inconclusive call do not appear. Active and inactive are the calls of the source. Calls follow the shape of the dose curve; as a rule, active = well fitted inhibition curve with a large enough effect; inconclusive = small, poorly fitted or top-dose-only effect; inactive = no such curve, though single readings can be large or run the other way.
Allowed answers: active, inactive

Solved entries (count: 3):
molecule | tested.on | label.value
CN1[C@@H]2CC[C@H]1CC(OC(=O)c1cc(Cl)cc(Cl)c1)C2 (some centres undefined) | Cytochrome P450 2C19 (Homo sapiens) | inactive
NC(N)=NCCC[C@H](N)C(=O)O | Cytochrome P450 2C19 (Homo sapiens) | inactive
O=C(O)c1nn(Cc2ccc(Cl)cc2Cl)c2ccccc12 | Cytochrome P450 2C19 (Homo sapiens) | inactive

What call does the record list for Oc1ccc(Cl)cc1Sc1cc(Cl)ccc1O ? active

---

Item-by-item account of activity change, negative = inhibition
protocol.summary: Primary qHTS to identify inhibitors of SARS-CoV-2 cell entry (AID 1645846); further: nearly all actives have a fitted effect of over 45% in size
condition: SARS-CoV-2 pseudovirus cell entry assay, luminescence; at 57.1 µM (top of the series) unless noted
Results filed as inconclusive are left out.
Give a bare numeral; the unit % is implied.

Worked examples, 4 compounds total:
compound | measured.endpoint | quantity.unit | measured.value
CCCNC(C)(C)COC(=O)c1ccccc1 | activity change, negative = inhibition | % | 3.38
CCC(C(=O)OCCN1CCOC(c2ccccc2)C1C)c1ccccc1 (stereo not given) | activity change, negative = inhibition | % | -21.8
CC(O)Cn1cnc2c1c(=O)n(C)c(=O)n2C (stereo not given) | activity change, negative = inhibition | % | 0.504
CCCc1cc(C(N)=S)ccn1 | activity change, negative = inhibition | % | -4.59

Entry Cc1ccc(/C=N/n2c(-c3ccccc3)csc2=S)cc1 : reported activity change, negative = inhibition = ? -8.63

Value lookup for activity change, negative = inhibition; key = CN(C)CCCOC1(Cc2ccccc2)CCCCCC1 -0.0488

Please give the measured activity change, negative = inhibition for this compound: C/C(=N/NC(=O)c1ccncc1)C(=O)O -2.02

Quick one: activity change, negative = inhibition for COP(=O)(OC)OC=C(Cl)Cl ? -2.57

What does the record list as activity change, negative = inhibition for CCCC[N+]1(C)[C@@H]2CC(OC(=O)[C@H](CO)c3ccccc3)C[C@H]1[C@@H]1O[C@@H]12 (stereo not given in full) ? -15.6

# activity change, negative = inhibition lookup, item O=C(OCC(O)CO)c1ccccc1Nc1ccnc2cc(Cl)ccc12 (stereo not given) -18.4

Param item = FC(F)(F)C(F)(F)C(F)(F)C(F)(F)C(F)(F)C(F)(F)C(F)(F)C(F)(F)Br ; retrieve measured activity change, negative = inhibition. -12.9

I'd like to know its activity change, negative = inhibition. The compound in question is CN1CCCN=C1/C=C/c1cccs1 -29.2

Reference source for all entries: PubChem BioAssay (NCATS)
